- ASSAY_TEXT: Drug metabolism in human intestine microsomes assessed as estriol-17-glucuronide formation after 15 to 60 mins by Michaelis-Menten equation analysis in presence of UDPGA
- Assay type: ADME
REPORTED_METRIC: Km

- COMPOUND: "C[C@]12CC[C@@H]3c4ccc(O)cc4CC[C@H]3[C@@H]1C[C@@H](O)[C@@H]2O [ESTRIOL]"
  REPORTED_METRIC: "Km"
  RESULT: "1120 µM"

* * *

- ASSAY_TEXT: Drug metabolism in human intestine microsomes assessed as estriol-16-glucuronide formation after 15 to 60 mins by Michaelis-Menten equation analysis in presence of UDPGA
- Assay type: ADME
REPORTED_METRIC: Km (µM)

- CPD_SMILES: "C[C@]12CC[C@@H]3c4ccc(O)cc4CC[C@H]3[C@@H]1C[C@@H](O)[C@@H]2O"
  REPORTED_METRIC: "Km"
  QUANTITATIVE_RESULT: 5.1
